Values compiled from patent US20080152587A1.

# key: entry, value: Human uPAR/uPA binding inhibition (%, line material)
SUBJECT_OF_TEST: T1, human urokinase-type plasminogen activator receptor (uPAR, CD87), cell-bound (human, UniProt Q03405 23-305)
T1 construct: whole, on cells; On B300.19 or L929 transfectants (full length cDNA), or native on U937 and PC-3 cells
ASSAY_REMARKS: FACS competition with FITC-tc-uPA, line material
ENDPOINT_NAME: Human uPAR/uPA binding inhibition (%, line material) (%)

fully human monoclonal antibody 4.18.1 (ATCC Accession Number PTA-7476) (antibody, V domains shown) VH: EVQLVESGGGLIQPGGSLRLSCAASGFTVRNNYMNWVRQAPGKGLEWVSVIYTGGSTYYADSVKGRFTISRDNSRNTLYLQMNSLRAEDTAVYYCAREGAVAGFDYWGQGTLVTVSL VL: EIVMTQFPATLSMSPGERATLSCRASQSVSSSLAWYQQTPGQAPRLLIYGASTRSTGFPARFSGIGSGTEFTLTISSLQSEDFAVYYCQQYGNWPLTFGQGTRLEIK	75
anti-uPAR monoclonal antibody 3.8.3 (antibody, V domains shown) VH: EVQLVESGGGLVQPGGSLRLSCAASGFTFSSYWMSWVRQAPGKGLEWVANIKQHGSEKYYVDSVKGRFTISRDNAKNSLYLQMNSLRAEDTAVYYCAREEAYYYDNSGYYWYFDLWARGTLVTVSS VL: DIQMTQSPSSVSASIGDRVTITCRASQGISSWLAWYQQKPGKTPKLLIYAASSLQSGVPSRFSGSGSGTDFTLTISSLQPEDFATYYCQQADSFPWTFGQGTKVEIK	70
anti-uPAR monoclonal antibody 1.61.1 (antibody, V domains shown) VH: EVQLVESGGGLVQPGGSLRLSCAASGFTFSSYDMHWVRQATGKGLEWVSAIGTAGDTYYPGSVKGRFTISRENAKNSLYLQMNSLRAGDTAVYYCAREGDYSNYFTRVRGVTYGMDVWGQGTTVTVSS VL: DIQMTQSPSSLSASVGDRVTITCRASQGISKYLAWFQQKPGKAPKSLIYGASSLQSGVPSKFSGSGSGTDFTLTISSLQPEDFATYYCQQYNSYPLTFGGGTKVEIK	69
anti-uPAR monoclonal antibody 1.41.1 (antibody, V domains shown) VH: QVQLVESGGGVVQPGRSLRLSCAAPGFTFSSYGMHWVRQAPGKGLEWVAVIWYDGSQKYYADSVKGRFTISRDNSKNTLYLQMNSLRAEDTAVYYCARGMTYYYYYGMDVWGQGTTVTVSS VL: EIVMTQSPAILSVSPGERATLSCRASQSVSSKLDWYQQKPGQAPRLLIYGASTRATGIPARFSGSGSGTEFTLTISSLQSEDFAVYYCQQYNNWPRTFGQGTKVEIK	74
fully human monoclonal antibody 2.6.1 (ATCC Accession Number PTA-7475) (antibody, V domains shown, also called mAb 2.6.1) VH: EVQLVESGGGLIQPGGSLRLSCAASGFTVITNYMNWVRQAPGKGLEWVSIIYTGGSTSYADSVKGRFTVSRDNSKNTLYLHMNSLRVEDTAVYYCAREIAVAGYYGMDVWGQGTTVTVS VL: DIQMTQSPSSLSASVGDRVTITCRASQGIRNDLGWYQQKPGKAPKRLIYAASSLQSGVPSRFSGSGSGTEFTLTISSLQPEDFATYYCLQHNSYPLTFGGGTRVEIK	80
anti-uPAR monoclonal antibody 1.4.2 (antibody, V domains shown) VH: EVQLVESGGGLVQPGGSLRLSCAASGFTFSSYDMHWVRQATGKGLEWVSAIGTAGDTYYPGSVKGRFTISRENAKNSLYLQMNSLRAGDTAVYYCAREGDYSNYFTMVRGVTYGMDVWGQGTTVTVSS VL: DIQLTQSPSSLCASVGDRITITCRASQGISKYLAWFQQKPGKAPKSLIYGASSLQSGVPAKFSGSGSGTDFTLTISSLQPEDFATYYCQQYNSYPLTFGGGTKVEIK	69
anti-uPAR monoclonal antibody 4.19.1 (antibody, V domains shown) VH: EVQLVESGGGLIQPGGSLRLSCAASGFSVSSNYMNWVRQAPGKGLEWVSVIYTGGSTYYADSVKGRFTISRDNSKNTLYLQMNSLRAEDTAVYYCARDTYLYGMDVWGQGTTVTVSS VL: EIVMTQSPATLSVSPGESATLSCRTSQSVSSNLAWYQQKPGQTPRLLIYGASARATGVPARFSGSGSGTEFTLTISSLQSEDFAVYYCQQYYNWPLTFGGGTKVEIK	77
anti-uPAR monoclonal antibody 1.113.2 (antibody, V domains shown) VH: QVQLVESGGGVVQPGRSLRLSCAASGFTFSSYGMHWVRQAPGKGLEWVAVIWYDGSNKYYADSVKGRFTISRDNSKNTLYLQMNSLRAEDTAVYYCARDLAALYYYYGMHVWGQGTTVTVSS VL: EIVMTQSPATLSVSPGERATLSCRASQSFSSNLAWYQQKPGQAPRLLIYGASTRATGIPARFSGSGSGTEFTLTISSLQSEDFAVYYCQQNNNWPRTFGQGTKVEIK	75
anti-uPAR monoclonal antibody 1.99.1 (antibody, V domains shown) VH: EVQLVESGGGLIQPGGSLRLSCAASGFTVRSNYMSWVRQAPGKGLEWISVIYTGGSTYYADSVKGRFSISRDNSKNTLYLQMNSLRAEDTAVYYCAREGAVAGFDYWGQGTLVTVSS VL: EIVMTQSPATLSVSPGERATLSCRASQSISSNLAWYQQKPGQAPRLLIYGASTRATGIPARFSGSGSGTEFTLTISSLQSEDFAVYYCQQYTNWPLTFGGGTKVEIK	78
